System: PC-3 prostate
Assay: NCI tumour cell line growth inhibition, 48 h
experimental_readout: GI50

# compound, reported_result
records = [
    ("CCCCCCCCCCCCCCCCN(CC)CC", "2.16 µM"),
    ("CN(C)CCOc1ccccc1NC1=C(Cl)C(=O)C(Nc2ccccc2OCCN(C)C)=C(Cl)C1=O", "9.84 µM"),
    ("O=S(=O)(NCCCNc1cc(-c2cn(-c3ccccc3)nc2-c2cccc(O)c2)ccn1)c1ccc(Br)cc1", "2.11 µM"),
    ("Cn1c(=O)c(Oc2ccc(F)cc2F)cc2cnc(NC3CCOCC3)nc21", "> 25 µM"),
    ("CC(C)Cc1ccc(C(C)C(=O)NCc2ccc(Cn3c(=O)sn(CCCI)c3=O)cc2)cc1 (stereo not drawn)", "0.732 µM"),
    ("N#Cc1c(N/N=C\\c2ccc(Cl)cc2)nc(N)nc1N1CCOCC1", "24.6 µM"),
    ("Cc1ccc(OCCOCCOCCOCCOCCOc2ccc(C)n(O)c2=S)c(=S)n1O", "0.345 µM"),
    ("O=C1CC(N2C(=O)/C(=C/C(Cl)=C\\c3ccc([N+](=O)[O-])cc3)SC2=S)C(=O)N1c1ccc(O)cc1 (stereo not drawn)", "0.906 µM"),
]
